# methodNotes: ATG_GRE_CIS: Attagene CIS-FACTORIAL HepG2 Assay for human Glucocorticoid Response Elements (GRE) (AID 2282947)
# setupConditions: HepG2 GRE cis-reporter, Attagene multiplex mRNA; actives raise or lower the signal
The source made the active and inactive calls. Rule for the calls: active = hit-call score of the fitted dose curve at least 0.9, where 1 is the maximum; inactive = score below 0.9.
One label from this list, please: y (active), n (inactive)

CCCSSCCC = n
COc1ccc(C(=O)/C(Br)=C\C(=O)O)cc1 = n
C/C=C/C=C/CCCCCCCO = n
CCCC(C)C(=O)OCC (stereo not given) = n
CC1CCC(=O)C1=O (stereo not given) = n
CCOC(=O)c1ccccc1C = n
CC(C)C(=O)OCCOc1ccccc1 = n
CCOB(OCC)OCC = n
NC(=O)Nc1ccccc1 = n
CCCCCCCCCCCC(=O)OCC = n

Query: Hey, what did the test say about CCCCNS(=O)(=O)c1ccccc1 ?
Reply: n

Query: Hey, what did the test say about C[Si]1(C)O[Si](C)(C)O[Si](C)(C)O[Si](C)(C)O[Si](C)(C)O1 ?
Reply: n

Query: Hey, what did the test say about CC(=O)OCC=C(C)C ?
Reply: n

Query: Hey, what did the test say about N#Cc1ccc(C(c2ccc(C#N)cc2)n2cncn2)cc1 ?
Reply: n

Query: Hey, what did the test say about CC(C)CO ?
Reply: n

Query: Hey, what did the test say about CCCCCCCCCC(C)=O ?
Reply: n

====

# methodNotes: TOX21_p53_BLA_p4_viability: Viability Assessment in the Tox21 HCT-116 p53 Agonism Beta-lactamase Assay, Phase 4 (AID 2283597);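 note: hits lower the luminescence signal meaning cytotoxicity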
Results filed as inconclusive are left out. Calls of active or inactive are those of the source. How the source made its calls: active means hit-call score of the fitted dose curve at least 0.9, where 1 is the maximum; inconclusive means response in the unintended direction; inactive means score below 0.9.
One label from this list, please: 1 (yes) (active), 0 (no) (inactive)

Use the examples below as a reference point.
CCCCNC(=S)NCCCC = 0 (no)
CCCCCCO = 0 (no)
CC=C(C)C=CC=C(C)C = 0 (no)
CCCCC(=O)O = 0 (no)
CC(CCC(=O)O)(c1ccc(O)cc1)c1ccc(O)cc1 = 0 (no)

Query: Hey, what did the test say about Clc1cc(Cl)c(Cl)c(Cl)c1Cl ?
Reply: 0 (no)

Query: Hey, what did the test say about C=C(C)OC(C)=O ?
Reply: 0 (no)

Query: Hey, what did the test say about Oc1c(Cl)cc(Cl)c(Cl)c1Cl ?
Reply: 0 (no)

Query: Hey, what did the test say about CC(=O)OC/C=C(/C)CCC=C(C)C ?
Reply: 0 (no)

Query: Hey, what did the test say about CCCCCCCCCCCCCC(=O)OC(C)C ?
Reply: 0 (no)

Query: Hey, what did the test say about O=C(OCc1ccccc1)c1ccc(O)cc1 ?
Reply: 0 (no)

Query: Hey, what did the test say about CC(C)(O)Cc1ccccc1 ?
Reply: 0 (no)

Query: Hey, what did the test say about CC1(C)[C@@H]2CC[C@@]1(C)C(=O)C2 ?
Reply: 0 (no)

Query: Hey, what did the test say about CC(Cl)COP(=O)(OCC(C)Cl)OCC(C)Cl (centres undefined) ?
Reply: 0 (no)

Query: Hey, what did the test say about CCCCC1C(=O)N(c2ccccc2)N(c2ccccc2)C1=O ?
Reply: 0 (no)

Query: Hey, what did the test say about COCC(=O)O ?
Reply: 0 (no)

Query: Hey, what did the test say about CC(C)(CO)COC(=O)C(C)(C)CO ?
Reply: 0 (no)

Query: Hey, what did the test say about CC(C)(c1ccccc1)c1ccc(Nc2ccc(C(C)(C)c3ccccc3)cc2)cc1 ?
Reply: 0 (no)

Query: Hey, what did the test say about CCCCCCCCCCCCCCCCCCOS(=O)(=O)O ?
Reply: 0 (no)

====

# measuredTarget: Bile acid receptor (Homo sapiens) (UniProt Q96RI1)
# Sequence (Q96RI1 whole entry, looked up): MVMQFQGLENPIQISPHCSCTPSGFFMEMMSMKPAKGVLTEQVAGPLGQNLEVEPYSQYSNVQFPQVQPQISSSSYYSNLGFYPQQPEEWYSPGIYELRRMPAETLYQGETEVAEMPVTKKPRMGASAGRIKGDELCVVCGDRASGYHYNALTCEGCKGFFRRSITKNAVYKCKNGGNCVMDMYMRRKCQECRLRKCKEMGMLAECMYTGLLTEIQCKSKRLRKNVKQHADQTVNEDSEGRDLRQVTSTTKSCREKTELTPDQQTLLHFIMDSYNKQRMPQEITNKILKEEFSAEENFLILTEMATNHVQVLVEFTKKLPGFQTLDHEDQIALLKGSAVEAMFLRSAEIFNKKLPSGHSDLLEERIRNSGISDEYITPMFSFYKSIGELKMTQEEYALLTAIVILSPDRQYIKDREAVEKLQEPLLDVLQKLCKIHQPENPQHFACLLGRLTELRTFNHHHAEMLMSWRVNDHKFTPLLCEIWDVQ
# methodNotes: OT_FXR_FXRSRC1_0480: Odyssey Thera (OT) 8-hour HEK293T Protein-Complementation Assay for Farnesoid X receptor/SRC-1 Co-activator (AID 2283383)
Inconclusive results are not listed. Active and inactive are the calls of the source. The calls were made as follows: active = hit-call score of the fitted dose curve at least 0.9, where 1 is the maximum; inconclusive = response in the unintended direction; inactive = score below 0.9. Peptide text beside a SMILES is read from it.
One label from this list, please: 1 (yes) for active, 0 (no) for inactive

Use the examples below as a reference point.
CCCCCCOc1ccc(N)cc1 = 0 (no)
CC12CCC(CC1)C(C)(C)O2 = 0 (no)
COc1ccc(C(=O)c2ccccc2)c(O)c1 = 0 (no)
CCCCCCCCCCCCCCCCCCOS(=O)(=O)O = 0 (no)
CC(CCC(=O)O)(c1ccc(O)cc1)c1ccc(O)cc1 = 0 (no)

Query: Hey, what did the test say about CCCCC(C=O)CC (configuration not stated) ?
Reply: 0 (no)

Query: Hey, what did the test say about CCCCCCCCCCCCCC(=O)OC(C)C ?
Reply: 0 (no)

Query: Hey, what did the test say about CCCCC/C=C\C/C=C\CCCCCCCC(=O)O ?
Reply: 0 (no)

Query: Hey, what did the test say about CCN1CN(CC)CN(CC)C1 ?
Reply: 0 (no)

Query: Hey, what did the test say about CCC[Si](OC)(OC)OC ?
Reply: 0 (no)

Query: Hey, what did the test say about CCCCC(=O)O ?
Reply: 0 (no)

Query: Hey, what did the test say about Nc1ccc(C(=O)O)cc1 ?
Reply: 0 (no)

Query: Hey, what did the test say about Cc1ccc([N+](=O)[O-])cc1N ?
Reply: 0 (no)

Query: Hey, what did the test say about O=C(OCc1ccccc1)c1ccc(O)cc1 ?
Reply: 1 (yes)

Query: Hey, what did the test say about COC(=O)[C@H](Cc1ccccc1)NC(=O)[C@@H](N)CC(=O)O (H-Asp-Phe-OMe) ?
Reply: 0 (no)

Query: Hey, what did the test say about Cc1cc(C)n(CO)n1 ?
Reply: 0 (no)

Query: Hey, what did the test say about CCC(C)(O)CCCC(C)C (configuration not stated) ?
Reply: 0 (no)

Query: Hey, what did the test say about CCCCCCOC(=O)CCCCC(=O)OCCCCCC ?
Reply: 0 (no)

Query: Hey, what did the test say about O=C(O)C1CCC(C(=O)O)CC1 (configuration not stated) ?
Reply: 0 (no)

Query: Hey, what did the test say about CCOC(=O)c1ccccc1C ?
Reply: 0 (no)

Query: Hey, what did the test say about CCOC(=O)C1=NOC(c2ccccc2)(c2ccccc2)C1 ?
Reply: 0 (no)

Query: Hey, what did the test say about N#Cc1ccc(C(c2ccc(C#N)cc2)n2cncn2)cc1 ?
Reply: 0 (no)

====

# measuredTarget: Myc proto-oncogene protein (Homo sapiens)
# methodNotes: ATG_Myc_CIS: Attagene CIS-FACTORIAL HepG2 Assay for human Myelocytomatosis (Myc) Proto-Oncogene Transcription Factor (AID 2282990)
# setupConditions: HepG2, Attagene cis-reporter transcription factor activity; actives raise or lower the signal
Activity calls are given as the source filed them. Rule for the calls: active = hit-call score of the fitted dose curve at least 0.9, where 1 is the maximum; inactive = score below 0.9.
One label from this list, please: class 1 = active, class 0 = inactive

Nc1ccc(O)c([N+](=O)[O-])c1 = class 0
CC(C)(C)NC(=O)[C@H]1CC[C@H]2[C@@H]3CC[C@H]4NC(=O)C=C[C@]4(C)[C@H]3CC[C@]12C = class 0
C[Si](C)(C)N[Si](C)(C)C = class 0
CC(C)(C)C1CCC(=O)CC1 = class 0
O=c1c(O)c(-c2ccc(O)cc2O)oc2cc(O)cc(O)c12 = class 0
Cc1cc(C)n(CO)n1 = class 0
CCCCCC[C@@H](O)C/C=C\CCCCCCCC(=O)OCC(O)CO (stereo partly drawn) = class 1
CC1CCC(C(C)(C)S)C(=O)C1 (stereo not drawn) = class 0
CN(C)Cc1cc(CN(C)C)c(O)c(CN(C)C)c1 = class 0
CCC(C)C(=O)OC (stereo not drawn) = class 0

Query: Hey, what did the test say about COC(=O)C=Cc1ccccc1 ?
Reply: class 0

Query: Hey, what did the test say about CC(=O)OC/C=C(/C)CCC=C(C)C ?
Reply: class 0

Query: Hey, what did the test say about c1ccc(Nc2cccc3ccccc23)cc1 ?
Reply: class 1

====

# methodNotes: ATG_MRE_CIS: Attagene CIS-FACTORIAL HepG2 Assay for human Metal Responsive Element (MRE) (AID 2282954)
# setupConditions: HepG2 MRE cis-reporter transcription, Attagene multiplex; actives raise or lower the signal
Active and inactive are the calls of the source. How the source made its calls: active means hit-call score of the fitted dose curve at least 0.9, where 1 is the maximum; inactive means score below 0.9.
One label from this list, please: T for active, F for inactive

Oc1ccccc1Cc1ccccc1O = T

Query: Hey, what did the test say about CC(=O)CCC1=C(C)CCCC1(C)C ?
Reply: F

Query: Hey, what did the test say about N=C1C=CC(=C(c2ccc(N)cc2)c2ccc(N)cc2)C=C1 ?
Reply: T

Query: Hey, what did the test say about CC1C(C)(C)C2=C(C(=O)CCC2)C1(C)C (configuration not stated) ?
Reply: F

Query: Hey, what did the test say about CCC(C)(O)CCCC(C)C (configuration not stated) ?
Reply: F

Query: Hey, what did the test say about C=CC(=O)NCOCCCC ?
Reply: F

Query: Hey, what did the test say about Cc1noc(NS(=O)(=O)c2ccc(N)cc2)c1C ?
Reply: F
